- testTarget: BRD4(BD1) (Homo sapiens, UniProt O60885)
- Construct: His; made in house
- assayProtocol: BRD4 AlphaLisa binding assay (Alphascreen)
- conditionSummary: Table 6; BRD4(BD1) 30 nM, H4-tetraacetyl peptide 200 nM; read-out: BRD4 Alphascreen IC50
Below: a set of entries, each annotated with reported IC50.

{"compound": "Cc1cccc2c1C(c1ccncc1)=N[C@@H](CC(N)=O)c1onc(C)c1-2", "IC50": "< 500 nM"}

Below: the item to evaluate.
Consider the compound Cc1cccc2c1C(c1ccc(F)cc1)=NC(CC(N)=O)c1onc(C)c1-2 (centres unmarked) and give its measured IC50.
< 500 nM

###

- Tested on: MYC mRNA
- assayProtocol: cMyc RNA quantification assay (QuantiGene) in MV4:11 cells
- Type: cell-based
- conditionSummary: Table 14; MV4:11 cells, 4 h; read-out: MYC-MV411
pIC50: −log10 of the molar value.
Below: a set of entries, each annotated with reported pIC50.

{"molecule": "CCOC(=O)NC1N=C(c2ccc(Cl)cc2)c2ccccc2-c2c(C)noc21 (single isomer, unassigned)", "pIC50": "< 6.00"}

Below: the item to evaluate.
Recorded pIC50 for Cc1noc2c1-c1ccc(OC(C)C)cc1C(c1ccc(Cl)cc1)=N[C@H]2CC(N)=O with MYC mRNA, please?
> 6.30

###

- testTarget: BRD4(BD1) (Homo sapiens)
- Construct: His; made in house
- assayProtocol: BRD4 AlphaLisa binding assay (Alphascreen)
- conditionSummary: Table 6; BRD4(BD1) 30 nM, H4-tetraacetyl peptide 200 nM; read-out: BRD4 Alphascreen IC50
valueKind: IC50

{"molecule": "COc1ccc(C2=N[C@@H](CC(N)=O)c3onc(C)c3-c3ccccc32)cc1 [Compound 146]", "testTarget": "BRD4(BD1) (Homo sapiens)", "valueKind": "IC50", "result": "< 500 nM"}
{"molecule": "CCNC(=O)C[C@@H]1N=C(c2ccc(C#N)cc2)c2ccccc2-c2c(C)noc21 [Compound 149]", "testTarget": "BRD4(BD1) (Homo sapiens)", "valueKind": "IC50", "result": "< 500 nM"}
{"molecule": "CC(=O)Nc1ccc(C2=NC(CC(N)=O)c3onc(C)c3-c3sc(C)c(C)c32)cc1 (stereo not shown) [Compound 118]", "testTarget": "BRD4(BD1) (Homo sapiens)", "valueKind": "IC50", "result": "< 500 nM"}
{"molecule": "CCNC(=O)C[C@@H]1N=C(c2ccc(Cl)cc2)c2cc(OC)ccc2-c2c(C)noc21 [Compound 160]", "testTarget": "BRD4(BD1) (Homo sapiens)", "valueKind": "IC50", "result": "< 500 nM"}
{"molecule": "Cc1noc2c1-c1sc(C)c(C)c1C(c1cc[nH]n1)=NC2CC(N)=O (stereo not shown) [Compound 100]", "testTarget": "BRD4(BD1) (Homo sapiens)", "valueKind": "IC50", "result": "< 500 nM"}

Consider the molecule Cc1noc2c1-c1sc(C)c(C)c1C(c1ccc(Cl)cn1)=NC2CC(N)=O (stereo not shown) [Compound 103] and give its measured IC50.
< 500 nM

Consider the molecule Cc1noc2c1-c1ccn(-c3ccccc3)c(=O)c1C(c1ccc(Cl)cc1)=NC2 [Compound 179] and give its measured IC50.
> 1000 nM

Consider the molecule Cc1noc2c1-c1ccc(Cl)cc1C(c1ccc(C#N)cc1)=N[C@H]2CC(N)=O [Compound 142] and give its measured IC50.
< 500 nM

Consider the molecule Cc1noc2c1-c1sc(C)c(C)c1C(N1CCN(C)CC1)=NC2CC(N)=O (stereo not shown) [Compound 121] and give its measured IC50.
> 1000 nM

Consider the molecule Cc1noc2c1-c1sc(C)c(C)c1C(C1CCOCC1)=N[C@H]2CC(N)=O [Compound 168] and give its measured IC50.
> 1000 nM

Consider the molecule CCNC(=O)C[C@@H]1N=C(c2ccc(C#N)cc2)c2cc(Cl)ccc2-c2c(C)noc21 [Compound 143] and give its measured IC50.
< 500 nM

Consider the molecule COc1ccc(C2=N[C@@H](CC(N)=O)c3onc(C)c3-c3cccc(C)c32)cc1 [Compound 135] and give its measured IC50.
< 500 nM

Consider the molecule Cc1noc2c1-c1sc(C)c(C)c1C(c1cccc(C(N)=O)c1)=NC2CC(N)=O (stereo not shown) [Compound 117] and give its measured IC50.
< 500 nM
